measured target: SCRIB_2, Q14160
Sequence (Q14160 857-960): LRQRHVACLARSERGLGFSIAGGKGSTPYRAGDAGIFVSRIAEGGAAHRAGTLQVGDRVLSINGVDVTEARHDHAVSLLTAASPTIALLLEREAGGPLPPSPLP
test protocol: holdup assay
Set-up: key: below the threshold = too weak to quantify, mostly under pKd 3.1 to 4
details: plain residues with an end cap or a label only (N-terminal biotin on a linker: ttds)
quantity measured: pKd
// keep it numeric: no unit symbol after the value

                          binder  quantitative_result
0  RTRQRNETQV [HPV51-E6, P26554]                 4.39

Input VNKVWDQSSV [CIT, O14578] , output reported pKd.
3.51

Input SEKHFRETEV [HTLV1-TAX1, P03409] , output reported pKd.
5.76
